Ref: PubChem BioAssay AID588579

Overview of reported activity, negative = inhibition across a group of molecules:
Biological target: DNA polymerase kappa (Homo sapiens) (UniProt Q9UBT6)
Sequence (Q9UBT6 whole entry, looked up): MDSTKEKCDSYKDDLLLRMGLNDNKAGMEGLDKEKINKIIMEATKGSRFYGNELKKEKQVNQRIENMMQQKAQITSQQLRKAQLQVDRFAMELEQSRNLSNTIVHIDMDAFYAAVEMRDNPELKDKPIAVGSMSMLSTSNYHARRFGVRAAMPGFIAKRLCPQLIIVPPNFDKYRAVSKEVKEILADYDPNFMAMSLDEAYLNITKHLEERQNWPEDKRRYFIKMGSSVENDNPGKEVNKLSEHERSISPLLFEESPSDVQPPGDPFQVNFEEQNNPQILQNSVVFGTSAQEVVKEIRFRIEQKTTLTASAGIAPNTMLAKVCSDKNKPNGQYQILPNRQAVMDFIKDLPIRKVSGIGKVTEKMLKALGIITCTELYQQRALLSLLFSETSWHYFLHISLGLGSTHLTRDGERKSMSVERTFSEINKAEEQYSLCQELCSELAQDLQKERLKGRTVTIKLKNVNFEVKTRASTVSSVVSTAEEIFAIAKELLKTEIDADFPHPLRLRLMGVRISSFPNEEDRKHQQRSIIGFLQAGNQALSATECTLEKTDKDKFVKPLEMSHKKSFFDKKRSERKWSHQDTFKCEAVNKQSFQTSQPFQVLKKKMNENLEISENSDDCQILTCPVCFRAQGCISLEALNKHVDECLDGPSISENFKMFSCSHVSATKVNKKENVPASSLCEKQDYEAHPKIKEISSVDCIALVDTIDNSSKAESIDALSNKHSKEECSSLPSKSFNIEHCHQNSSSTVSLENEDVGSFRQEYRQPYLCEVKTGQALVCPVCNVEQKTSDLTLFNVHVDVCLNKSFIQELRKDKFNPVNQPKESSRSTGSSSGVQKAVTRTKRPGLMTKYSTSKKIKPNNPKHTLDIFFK
Experiment: qHTS for Inhibitors of Polymerase Kappa; on activity, negative = inhibition: on the % scale 0 is the no-effect control and ±100 the full control effect
Settings: purified Pol kappa, fluorescent DNA synthesis assay, 10 min; series mostly up to 107 µM
In all, about 400,000 compounds went through this assay and about 2,200 (0.55%) were called active. Roughly 1% stayed inconclusive and do not appear here. The list comes from a sample in which actives are over-represented; it also holds close analogues and randomly drawn compounds.

Look over these answered cases.
CN1[C@H]2CC(OC(=O)[C@@H](CO)c3ccccc3)C[C@H]1[C@H]1O[C@H]12 (some centres not stated) ... -3.18% [at 12 µM] (inactive)
COc1ccc(C[C@H](N)C(=O)N[C@@H]2[C@H](O)[C@H](n3cnc4c(N(C)C)ncnc43)O[C@@H]2CO)cc1 ... -1.14% [at 12 µM] (inactive)
CCOC(=O)Cn1c(=O)sc2cccc(Cl)c21 ... -6.5% [at 12 µM] (inactive)
COc1ccc(C2(C#N)CCC(C(=O)O)CC2)cc1OC1CCCC1 (configuration not stated) ... 1.33% [at 19.4 µM] (inactive)
O=C(/C=C/c1cccc(F)c1)NC1CC1 ... 10.9% [at 19.4 µM] (inactive)

-- ask Form field - read-out: activity, negative = inhibition; system: DNA polymerase kappa (Homo sapiens) (UniProt Q9UBT6); submitted item: "CC(=O)NC(=O)c1ccccc1O"
-- reply -8.55% [at 19.4 µM] (inactive)

----------
Biological target: DNA polymerase kappa (Homo sapiens)
Assay: qHTS for Inhibitors of Polymerase Kappa
Settings: purified Pol kappa, fluorescent DNA synthesis assay, 10 min; series mostly up to 107 µM
In all, about 400,000 compounds went through this assay and about 2,200 (0.55%) were called active. Another 1% or so got no clear call; they are omitted. The call rests on the fitted dose curve; in most records, active means well fitted inhibition curve with a large enough effect; inconclusive means small, poorly fitted or top-dose-only effect, or another doubt; inactive means no such curve, though single readings can be large or run the other way. Only a selection was taken, and actives are over-represented in it overall.
A correct response names exactly one class from y for active, n for inactive

See these solved cases before continuing.
C(=Nc1ccc(/C=C/c2ccnc3ccccc23)cc1)Nc1ccc(/C=C/c2ccnc3ccccc23)cc1 ... n
Nc1ccc(/C=C/c2ccnc3ccccc23)c([N+](=O)[O-])c1 ... n
CN1CCOC1c1ccc(C2OCCN2C)cc1 (stereo not given) ... y
CCNc1ncc2nc(CCc3ccccc3)c(=O)n(-c3ccc(OC)cc3)c2n1 ... n
CC(=O)Nc1ccc(S(=O)(=O)NC2(C(F)(F)F)C(=O)NC(C)=C2C#N)cc1 (stereo not given) ... y

--- query ---
-- ask Test call, this molecule: CCCN1C(=O)C(NS(=O)(=O)c2ccc(N)cc2)(C(F)(F)F)C(C(=O)OC)=C1C (stereo not given)
-- reply n

----------
Target: DNA polymerase kappa (Homo sapiens) (UniProt Q9UBT6)
Test: qHTS for Inhibitors of Polymerase Kappa
Settings: purified Pol kappa, fluorescent DNA synthesis assay, 10 min; series mostly up to 107 µM
Among all 400,000 compounds or so, about 2,200 (0.55%) were called active. Inconclusive results (about 1%) are left out. The call rests on the fitted dose curve; in most records, active means well fitted inhibition curve with a large enough effect; inconclusive means small, poorly fitted or top-dose-only effect, or another doubt; inactive means no such curve, though single readings can be large or run the other way. What follows is part of a selection rich in actives, with near analogues and random picks from the rest.
A correct response names exactly one class from true (active), false (inactive)

See these solved cases before continuing.
COc1ccccc1OCCOc1ccc(/C=C2\C(=N)N3N=C(C)SC3=NC2=O)cc1 ... false
CCCCCCCNc1ccc(/C=C/c2ccnc3ccccc23)cc1 ... false

-- ask Test call, this compound: "COc1ccc(OC)c(NC(=O)/C=C/c2ccc(C)o2)c1"
-- reply false

-- ask Test call, this compound: "Cc1ccc(/C=C/C(=O)Nc2ccc([N+](=O)[O-])c(NC(=O)/C=C/c3ccc(C)o3)c2)o1"
-- reply true

-- ask Test call, this compound: "CN(Cc1ccco1)c1ncncc1-c1ccoc1"
-- reply false

-- ask Test call, this compound: "CN(C)c1ccc(C=Nc2ccc(/C=C/c3ccnc4ccccc34)cc2)cc1"
-- reply false

-- ask Test call, this compound: Oc1ccc2c(c1)OCC1c3cc4c(cc3OC21)OCO4 (stereo not given)
-- reply false

-- ask Test call, this compound: "CNc1ncnc2ccc(-c3cccc(NS(C)(=O)=O)c3)cc12"
-- reply false

-- ask Test call, this compound: "COc1c(O)c2c(=O)cc(OC)c3c4c(OC)cc(=O)c5c(O)c(OC)c6c(c(c1C[C@@](C)(O)[C@H]6C(C)=O)c23)c54"
-- reply false

-- ask Test call, this compound: CC(=O)OC1CCC2(O)CC1(C)CCC1C2CC1(C)C (stereo not given)
-- reply false

----------
Target: DNA polymerase kappa (Homo sapiens)
Assay: qHTS for Inhibitors of Polymerase Kappa
Conditions: purified Pol kappa, fluorescent DNA synthesis assay, 10 min; series mostly up to 107 µM
Hit rate of the full screen: of about 400,000 compounds, about 2,200 (0.55%) were called active. Inconclusive results (about 1%) are left out. Calls follow the shape of the dose curve; as a rule, active = well fitted inhibition curve with a large enough effect; inconclusive = small, poorly fitted or top-dose-only effect, or another doubt; inactive = no such curve, though single readings can be large or run the other way. The list comes from a sample in which actives are over-represented; it also holds close analogues and randomly drawn compounds.
A correct response names exactly one class from active, inactive

See these solved cases before continuing.
CS(=O)c1ccc(/C=C2\C=Cc3ccccc32)cc1 (stereo unspecified) ... inactive
COc1ccc(Cc2nnc(NC(=O)Cc3cccs3)s2)cc1 ... active
O=C(c1cnccn1)N1CCC2(CCCN(Cc3ccccc3)C2)CC1 ... inactive
Cc1cc(C)c2nc(-c3cccnc3)cc(C(=O)Nc3ccc(S(=O)(=O)Nc4onc(C)c4C)cc3)c2c1 ... inactive
CCc1nnc(NC(=O)CCC(=O)NCc2ccccc2OC)s1 ... inactive

-- ask Test call, this compound: "COc1ccccc1-n1c(-c2cc(-c3ccco3)[nH]n2)n[nH]c1=S"
-- reply active

----------
Target: DNA polymerase kappa (Homo sapiens) (UniProt Q9UBT6)
Experiment: qHTS for Inhibitors of Polymerase Kappa
Settings: purified Pol kappa, fluorescent DNA synthesis assay, 10 min; series mostly up to 107 µM
The whole screen tested about 400,000 compounds, of which about 2,200 (0.55%) were called active. Another 1% or so got no clear call; they are omitted. Calls follow the shape of the dose curve; as a rule, active = well fitted inhibition curve with a large enough effect; inconclusive = small, poorly fitted or top-dose-only effect, or another doubt; inactive = no such curve, though single readings can be large or run the other way. Many of the other results were omitted from the sample, so actives are more common in it than they were.
A correct response names exactly one class from 1.0 = active, 0.0 = inactive

See these solved cases before continuing.
COc1cccc(N2CC(NC(=O)/C=C\c3ccccc3)CC2=O)c1 (stereo unspecified) ... 0.0
COCOc1cc(O)c(C(=O)/C=C/c2ccc(OCOC)c(OCOC)c2)c(OCOC)c1 ... 0.0
O=C(c1ccc(Br)o1)N1CCN(CCOc2ccccc2)CC1 ... 0.0
CC1CCN(C(=O)COC(=O)CCC(=O)c2cccs2)CC1 ... 0.0
Cc1ccc(N=C2NC(=O)/C(=C/C=C/c3ccco3)S2)cc1C ... 1.0

--- query ---
-- ask Test call, this compound: "COc1ccc(/C=C/C(=O)c2cc(Br)ccc(=O)c2O)cc1"
-- reply 1.0

----------
Overview of reported activity, negative = inhibition across a group of compounds:
Target: DNA polymerase kappa (Homo sapiens) (UniProt Q9UBT6)
Experiment: qHTS for Inhibitors of Polymerase Kappa; on activity, negative = inhibition: on the % scale 0 is the no-effect control and ±100 the full control effect
Settings: purified Pol kappa, fluorescent DNA synthesis assay, 10 min; series mostly up to 107 µM
Among all 400,000 compounds or so, about 2,200 (0.55%) were called active. Roughly 1% stayed inconclusive and do not appear here. What follows is part of a selection rich in actives, with near analogues and random picks from the rest.

Cc1cccc(C)c1NC(=O)NC1=CCCN1C ... 0.19% [at 19.4 µM] (inactive)

-- ask What value of activity, negative = inhibition has been reported for the following compound? "CC(C)=CCC[C@]1(C)[C@@H](CC=C(C)C)C[C@@]2(CC=C(C)C)C(=O)[C@]1(C(=O)C(C)C)C(=O)C(CC=C(C)C)=C2O"
-- reply -7.28% [at 19.4 µM] (inactive)

-- ask What value of activity, negative = inhibition has been reported for the following compound? "C=C1C(=CC=C2CCC[C@@]3(C)[C@@H]2CC[C@H]3[C@H](C)CCCC(C)C)C[C@@H](O)C[C@@H]1O"
-- reply -13.8% [at 19.4 µM] (inactive)

-- ask What value of activity, negative = inhibition has been reported for the following compound? "CC(C)(O)c1ccccc1CC[C@H](SCC1(CC(=O)O)CC1)c1cccc(/C=C/c2ccc3ccc(Cl)cc3n2)c1"
-- reply -3.16% [at 19.4 µM] (inactive)

----------
Target: DNA polymerase kappa (Homo sapiens)
Assay: qHTS for Inhibitors of Polymerase Kappa
Conditions: purified Pol kappa, fluorescent DNA synthesis assay, 10 min; series mostly up to 107 µM
Out of some 400,000 compounds screened, about 2,200 (0.55%) were called active. Roughly 1% stayed inconclusive and do not appear here. Calls come from the whole dose curve; as a rule, active = well fitted inhibition curve with a large enough effect; inconclusive = small, poorly fitted or top-dose-only effect, or another doubt; inactive = no such curve, though single readings can be large or run the other way. The sample as a whole holds a higher share of actives than the screen did.
A correct response names exactly one class from Yes for active, No for inactive

See these solved cases before continuing.
c1ccc(CSc2nnc(-c3ccco3)c(-c3ccco3)n2)cc1 ... Yes
Clc1ccccc1CSc1nnc(-c2ccco2)c(-c2ccco2)n1 ... Yes
Cc1ccc(-c2nnc(SCC(=O)NCc3ccccc3)nc2-c2ccc(C)cc2)cc1 ... No

-- ask Test call, this compound: "Cc1nc2cnc(N3CCNCC3)nc2n(Cc2ccc(F)cc2)c1=O"
-- reply No

-- ask Test call, this compound: "CCN(C(=O)COC(=O)CCC(=O)c1cccs1)C1CCCCC1"
-- reply No

-- ask Test call, this compound: "O=C(Nc1cccc(F)c1)N1CC2(CCN(C(=O)c3cnccn3)CC2)C1"
-- reply No

-- ask Test call, this compound: "COc1cccc(Cn2c(=O)cnc3cncnc32)c1"
-- reply No

-- ask Test call, this compound: O=C1OC(C(O)CO)C(O)=C1O (configuration not stated)
-- reply No

-- ask Test call, this compound: "CSc1n[nH]c(-c2ccco2)n1"
-- reply No

-- ask Test call, this compound: "CC(C)(C(=O)NO)c1ccccc1"
-- reply No

-- ask Test call, this compound: "Clc1ccccc1CSc1nncn2c1cc1occc12"
-- reply No

-- ask Test call, this compound: "COCCn1c(=O)c(CCc2ccccc2)nc2cnc(N3CCNCC3)nc21"
-- reply No
